protocol-summary: Phase 1 study (NCT04249843): plasma pharmacokinetics of Compound A
Format: in vivo, human
condition-description: human, plasma, oral, 25 mg, C1D1, Mean (%CV); read-out: AUC8 h
recorded-endpoint: AUC(0-t)

>>> measurement("O=C1CCc2c(Oc3ccc4c(c3)[C@H]3[C@H](NC(=O)Nc5cc(F)c(F)cc5F)[C@H]3O4)ccnc2N1")
"3090 ng·h/mL"

====

protocol-summary: Phase 1 study (NCT04249843): plasma pharmacokinetics of Compound A
Type: in vivo, human
condition-description: human, plasma, oral, 5 mg, C1D1, Mean (%CV); read-out: AUC24 h
recorded-endpoint: AUC(0-t) (ng·h/mL)

>>> measurement("O=C1CCc2c(Oc3ccc4c(c3)[C@H]3[C@H](NC(=O)Nc5cc(F)c(F)cc5F)[C@H]3O4)ccnc2N1")
1380
